Reference for the values: PubChem BioAssay AID1963967

tested on: 855422-203-R-J1-PDC spheroids with HUVEC/MSC, viability; experiment: Anticancer human tumor 855422-203-R-J1-PDC patient-derived bladder carcinoma cell line growth inhibition [PI3K]; conditions: second compound 0.316 µM; first compound 0.0316 µM; hits give low values;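 further: agents incubated with spheroids for one week before read-out; 100% = DMSO vehicle-treated control wells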
Readout Label: viability, T/C (%)
Reply with just the number (in %).

Response field viability, T/C (855422-203-R-J1-PDC spheroids with HUVEC/MSC, viability) for item Cn1ncnc1[C@H]1c2n[nH]c(=O)c3cc(F)cc(c23)N[C@@H]1c1ccc(F)cc1 + COc1c(OCCCN2CCOCC2)ccc2c3n(c(=NC(=O)c4cnc(N)nc4)nc12)CCN3 : 7.3

Response field viability, T/C (855422-203-R-J1-PDC spheroids with HUVEC/MSC, viability) for item CC(=O)c1c(C)c2cnc(Nc3ccc(N4CCNCC4)cn3)nc2n(C2CCCC2)c1=O + CC(Nc1ccc2c(c1)OCCn1cc(N3C(=O)OCC3C(F)F)nc1-2)C(N)=O : 44.4

Response field viability, T/C (855422-203-R-J1-PDC spheroids with HUVEC/MSC, viability) for item Cn1ncnc1[C@H]1c2n[nH]c(=O)c3cc(F)cc(c23)N[C@@H]1c1ccc(F)cc1 + Cc1nc(NC(=O)N2CCCC2C(N)=O)sc1-c1ccnc(C(C)(C)C(F)(F)F)c1 : 98.6

Response field viability, T/C (855422-203-R-J1-PDC spheroids with HUVEC/MSC, viability) for item CC(C)n1nc(-c2ccc3oc(N)nc3c2)c2c(N)ncnc21 + Cc1nc(NC(=O)N2CCCC2C(N)=O)sc1-c1ccnc(C(C)(C)C(F)(F)F)c1 : 51.8

Response field viability, T/C (855422-203-R-J1-PDC spheroids with HUVEC/MSC, viability) for item C[C@@H](NC(=O)c1ncnc(N)c1Cl)c1ncc(C(=O)Nc2cc(C(F)(F)F)c(Cl)cn2)s1 + CC(Nc1ccc2c(c1)OCCn1cc(N3C(=O)OCC3C(F)F)nc1-2)C(N)=O : 47.3

Response field viability, T/C (855422-203-R-J1-PDC spheroids with HUVEC/MSC, viability) for item CC1(C)CCC(Nc2ncc(C(F)(F)F)c(-c3c[nH]c4c(P(C)(C)=O)c(C#N)ccc34)n2)CN1 (configuration not stated) + CC(Nc1ccc2c(c1)OCCn1cc(N3C(=O)OCC3C(F)F)nc1-2)C(N)=O : 15.3

Response field viability, T/C (855422-203-R-J1-PDC spheroids with HUVEC/MSC, viability) for item CNC(=O)c1ccc(N2C(=S)N(c3ccc(C#N)c(C(F)(F)F)c3)C(=O)C2(C)C)cc1F + COc1c(OCCCN2CCOCC2)ccc2c3n(c(=NC(=O)c4cnc(N)nc4)nc12)CCN3 : 11.5

Response field viability, T/C (855422-203-R-J1-PDC spheroids with HUVEC/MSC, viability) for item CC(=O)c1c(C)c2cnc(Nc3ccc(N4CCNCC4)cn3)nc2n(C2CCCC2)c1=O + CC(Nc1ncnc2nc[nH]c12)c1cc2cccc(Cl)c2c(=O)n1-c1ccccc1 : 105

Response field viability, T/C (855422-203-R-J1-PDC spheroids with HUVEC/MSC, viability) for item Cn1nccc1Nc1nccc(-c2ccn(C(CO)c3ccc(Cl)c(F)c3)c(=O)c2)n1 (configuration not stated) + CC(Nc1ccc2c(c1)OCCn1cc(N3C(=O)OCC3C(F)F)nc1-2)C(N)=O : 53.6

Response field viability, T/C (855422-203-R-J1-PDC spheroids with HUVEC/MSC, viability) for item C=CC(=O)N1CCN(c2nc(=O)n(-c3c(C)ccnc3C(C)C)c3nc(-c4c(O)cccc4F)c(F)cc23)C(C)C1 (configuration not stated) + CC(Nc1ncnc2nc[nH]c12)c1cc2cccc(Cl)c2c(=O)n1-c1ccccc1 : 97.5

Response field viability, T/C (855422-203-R-J1-PDC spheroids with HUVEC/MSC, viability) for item CC(Cn1ccc(-c2ccc(C#N)c(Cl)c2)n1)NC(=O)c1cc(C(C)O)[nH]n1 (configuration not stated) + COc1c(OCCCN2CCOCC2)ccc2c3n(c(=NC(=O)c4cnc(N)nc4)nc12)CCN3 : 7.87

Response field viability, T/C (855422-203-R-J1-PDC spheroids with HUVEC/MSC, viability) for item CC1(C)CCC(Nc2ncc(C(F)(F)F)c(-c3c[nH]c4c(P(C)(C)=O)c(C#N)ccc34)n2)CN1 (configuration not stated) + COc1c(OCCCN2CCOCC2)ccc2c3n(c(=NC(=O)c4cnc(N)nc4)nc12)CCN3 : 5.48
